- measured_target: rat 5-HT2C (Rattus norvegicus)
- Construct: expressed in transfected cells; host or cells: HEK293 (Flp-In system, pcDNA5.0FRT)
- Sequence (P08909 33-460): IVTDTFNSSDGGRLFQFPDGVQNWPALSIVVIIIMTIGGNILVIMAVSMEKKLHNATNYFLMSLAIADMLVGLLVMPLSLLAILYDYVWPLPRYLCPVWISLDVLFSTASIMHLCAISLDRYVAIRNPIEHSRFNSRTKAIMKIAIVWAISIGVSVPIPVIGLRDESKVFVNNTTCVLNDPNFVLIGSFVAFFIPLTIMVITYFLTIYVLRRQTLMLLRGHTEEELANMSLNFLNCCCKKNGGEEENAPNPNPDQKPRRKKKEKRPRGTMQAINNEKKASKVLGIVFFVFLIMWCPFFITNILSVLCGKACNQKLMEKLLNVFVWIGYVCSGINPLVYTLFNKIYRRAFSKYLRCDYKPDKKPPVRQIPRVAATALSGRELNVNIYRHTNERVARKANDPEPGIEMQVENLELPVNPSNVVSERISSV
- test_protocol: Primary radioligand competitive binding assay, [3H]mesulergine
- protocol_conditions: ligand 10 μM, HEK293 cells
measured_parameter: Rat 5-HT2C (%) primary radioligand competitive binding
Answers are plain numbers, in %.

Some solved cases for reference:
• CCCCCn1c2ccc(C(=O)N3CCCCC3)cc2c2ccc(OC)cc21 [NMP-4] = -9.3
• CCCCCn1c2c(c3ccccc31)C[C@@H](C(=O)N1CCCCC1)NC2 [NMP-141] = -8.4
• CCCCCn1c2c(c3ccccc31)C[C@H](C(=O)N1CCCCC1)NC2 [NMP-140] = -4.2

Give Rat 5-HT2C (%) primary radioligand competitive binding for each of the items listed below.
1. CCCCCn1c2c(c3ccc(OC)cc31)CN(C(=O)c1ccccc1)CC2 [NMP-144]
2. CCCCCn1c2ccccc2c2cc(C(=O)NCCc3ccc(Cl)cc3)ccc21 [NMP-139]

1: 13; 2: -7.8
